This collection of values is drawn from paper PMC7926627.

Tested system: eqBChE (equine butyrylcholinesterase) (Equus caballus, UniProt P81908)
Construct: butyrylcholinesterase (eqBuChE, E.C. 3.1.1.8, from equine serum); purchased Sigma Aldrich; host or cells: equine serum
Sequence (P81908 whole entry): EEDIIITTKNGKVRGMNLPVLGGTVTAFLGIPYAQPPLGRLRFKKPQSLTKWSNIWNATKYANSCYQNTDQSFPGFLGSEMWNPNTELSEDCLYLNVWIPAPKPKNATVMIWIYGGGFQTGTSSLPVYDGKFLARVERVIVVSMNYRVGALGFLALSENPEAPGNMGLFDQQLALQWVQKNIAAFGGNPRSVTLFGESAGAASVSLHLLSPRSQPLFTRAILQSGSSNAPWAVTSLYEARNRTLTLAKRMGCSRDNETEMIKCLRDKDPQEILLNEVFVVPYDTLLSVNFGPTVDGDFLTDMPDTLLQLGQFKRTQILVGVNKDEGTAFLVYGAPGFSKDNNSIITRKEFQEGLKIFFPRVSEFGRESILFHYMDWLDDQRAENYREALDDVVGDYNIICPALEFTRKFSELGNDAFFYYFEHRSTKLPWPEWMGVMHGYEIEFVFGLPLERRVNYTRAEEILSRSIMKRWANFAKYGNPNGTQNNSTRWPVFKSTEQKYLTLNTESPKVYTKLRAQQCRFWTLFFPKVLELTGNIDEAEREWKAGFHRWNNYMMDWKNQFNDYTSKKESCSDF
Protocol description: biochemical
Assay setup: read-out: IC50 eqBChE
Readout: IC50 (nM)

>>> df
                                   compound  readout  recorded_result
0  O=C(/C=C/c1ccc(O)c(O)c1)NCCCCCCCC[P+](c1ccccc1)(c1ccccc1)c1ccccc1 [AntiOXCIN3, reference compound]     IC50              325

* * *

Tested system: eeAChE (electric eel acetylcholinesterase) (Electrophorus electricus, UniProt O42275)
Construct: Eel acetylcholinesterase (eeAChE, E.C. 3.1.1.7, from Electrophorus electricus); purchased Sigma Aldrich
Sequence (O42275 24-633): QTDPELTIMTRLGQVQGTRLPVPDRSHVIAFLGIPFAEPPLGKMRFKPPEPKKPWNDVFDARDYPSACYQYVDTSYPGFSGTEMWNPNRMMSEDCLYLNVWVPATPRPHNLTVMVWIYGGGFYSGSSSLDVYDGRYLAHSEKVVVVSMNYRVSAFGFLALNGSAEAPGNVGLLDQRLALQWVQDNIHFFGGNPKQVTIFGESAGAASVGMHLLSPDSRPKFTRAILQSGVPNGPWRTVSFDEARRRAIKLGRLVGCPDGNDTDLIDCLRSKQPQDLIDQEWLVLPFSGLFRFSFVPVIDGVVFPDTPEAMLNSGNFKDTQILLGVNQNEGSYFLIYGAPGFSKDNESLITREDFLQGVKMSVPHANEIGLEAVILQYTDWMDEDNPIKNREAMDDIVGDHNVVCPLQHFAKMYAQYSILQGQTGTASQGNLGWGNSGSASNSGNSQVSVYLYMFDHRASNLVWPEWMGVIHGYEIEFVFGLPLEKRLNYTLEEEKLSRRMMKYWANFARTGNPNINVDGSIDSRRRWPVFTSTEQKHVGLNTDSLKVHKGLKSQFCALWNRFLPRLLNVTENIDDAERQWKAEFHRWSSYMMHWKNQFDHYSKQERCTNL
Protocol description: eeAChE inhibition, Ellman's method
Format: biochemical
Readout: IC50

>>> df
                                   compound  recorded_result
0  O=C(/C=C/C=C/c1ccc2c(c1)OCO2)NCCCCCC[P+](c1ccccc1)(c1ccccc1)c1ccccc1.[Br-]          5.74 µM
1  O=C(/C=C/C=C/c1ccc(O)c(O)c1)NCCCC[P+](c1ccccc1)(c1ccccc1)c1ccccc1.[Br-]          2.23 µM
2  O=C(/C=C/C=C/c1ccc2c(c1)OCO2)NCCCC[P+](c1ccccc1)(c1ccccc1)c1ccccc1.[Br-]          6.39 µM
3  O=C(/C=C/c1ccc(O)c(O)c1)NCCCCCCCC[P+](c1ccccc1)(c1ccccc1)c1ccccc1 [AntiOXCIN3, reference compound]          5.08 µM
4  O=C(/C=C/C=C/c1ccc(O)c(O)c1)NCCCCCC[P+](c1ccccc1)(c1ccccc1)c1ccccc1.[Br-]          2.14 µM

* * *

Protocol description: Chromatographic hydrophobicity index by gradient RP-HPLC at pH 2.3
Readout: CHI

>>> print(df.to_string())
                                   compound  recorded_result
0  O=C(/C=C/C=C/c1ccc(O)c(O)c1)NCCCCCC[P+](c1ccccc1)(c1ccccc1)c1ccccc1.[Br-] [Compound 5]             37.2
1  O=C(/C=C/c1ccc(O)c(O)c1)NCCCCCC[P+](c1ccccc1)(c1ccccc1)c1ccccc1 [AntiOXCIN2, reference compound]             37.9
2  O=C(/C=C/c1ccc(O)c(O)c1)NCCCCCCCC[P+](c1ccccc1)(c1ccccc1)c1ccccc1 [AntiOXCIN3, reference compound]             41.4

* * *

Protocol description: Chromatographic hydrophobicity index by gradient RP-HPLC at pH 2.3
Readout: CHI

                                   compound  recorded_result
0  O=C(C=CC=Cc1ccc2c(c1)OCO2)N1CCCCC1 [Compound 1]             73.4
1  O=C(/C=C/C=C/c1ccc2c(c1)OCO2)NCCCCCC[P+](c1ccccc1)(c1ccccc1)c1ccccc1.[Br-] [Compound 3]             45.8
2  O=C(/C=C/C=C/c1ccc2c(c1)OCO2)NCCCC[P+](c1ccccc1)(c1ccccc1)c1ccccc1.[Br-] [Compound 2]             42.8
3  O=C(/C=C/C=C/c1ccc(O)c(O)c1)NCCCC[P+](c1ccccc1)(c1ccccc1)c1ccccc1.[Br-] [Compound 4]             34.4
